# ASSAY: liver-stage malaria parasite growth inhibition, primary screen, cell-based, HepG2, luciferase luminescence, HepG2 viability (AID 624349);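 further: 100% = mean of DMSO negative control wells on the same plate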
# TEST_CONTEXT: P. berghei liver stage in HepG2, luciferase luminescence, concentration not given here; stronger effect = lower value
RECORDED_ENDPOINT: parasite load remaining (%)
The figure you give is taken to be in %; do not add the unit.

| COMPOUND | QUANTITATIVE_READOUT |
| --- | --- |
| COc1ccc(C(=O)OC2C[C@H]3CC[C@@H](C2)N3C)cc1OC (stereo not given in full) | 68.2 |
| CC(=O)NC1CCSC1=O (stereo not given) | 132 |

Noted for CC(Cc1ccccc1)NCCC(c1ccccc1)c1ccccc1 (stereo not given) (tested in a mixture with another compound) : its parasite load remaining reads 65.1

Noted for C[C@]12CCC(=O)C=C1CC[C@@H]1[C@@H]2CC[C@@]2(C)[C@H]1CC[C@]2(C)O : its parasite load remaining reads 82.1

Noted for C/C=C/N1CC[C@]23CCCC[C@H]2[C@H]1Cc1ccc(O)cc13 : its parasite load remaining reads 46.3

---

# ASSAY: sensitizers of A549 cells to miR-34 induction, primary screen, imaging, A549 dox-inducible miR-34, nuclei and caspase counts (AID 1347080)
# TEST_CONTEXT: A549 miR-34 inducible, Hoechst nuclei count, 48 h; measured here: relative caspase fold change +Dox/-Dox
RECORDED_ENDPOINT: fold change

| MOLECULE | fold change |
| --- | --- |
| COc1ccc(C[C@@H]2NC[C@@H](O)[C@@H]2OC(C)=O)cc1 | 1.1 |
| C[C@@H]([C@H](O)c1ccccc1)N(C)C | 0.912 |
| Nc1cc2c(ncn2CCOCP(=O)(O)O)c(=O)[nH]1 | 1.02 |
| CCN(CC)C(=O)c1ccc(C2=CC3(CCNCC3)Oc3cccc(O)c32)cc1 | 0.955 |
| CC(C)(O)C1C2OC(=O)C1[C@]1(O)CC3O[C@]34C(=O)OC2[C@]14C (stereo not given in full) (tested in a mixture with another compound) | 1.55 |

Noted for Cc1ncc(CN2CC=C(c3ccccc3)CC2)c(N)n1 : its fold change reads 1.21

Noted for Oc1ccc2c3c1O[C@H]1c4[nH]c5ccccc5c4C[C@@]4(O)C(C2)N(CC2CC2)CC[C@]314 : its fold change reads 0.989

---

# ASSAY: growth inhibition of DIPG glioma cells, dose response, cell-based, SU-DIPG-XIII, MIPE4.0, CellTiter-Glo, qHTS (AID 1347061);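 further: cells exposed to compound for 48 hours before readout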
# TEST_CONTEXT: SU-DIPG-XIII viability, CellTiter-Glo ATP luminescence
Records with an inconclusive call do not appear. Calls of active or inactive are those of the source. Cut-off not given; nearly all actives show AC50 up to about 37 µM.
Permitted responses: 1 (active), 0 (inactive)

Worked cases, answers included:
| COMPOUND | CATEGORY_LABEL |
| --- | --- |
| COc1ccc(C(=O)c2c(C)n(CCN3CCOCC3)c3ccccc23)cc1 | 0 |
| C/C(=C\c1csc(C)n1)[C@@H]1C[C@@H]2O[C@]2(C)CCC[C@H](C)[C@H](O)[C@@H](C)C(=O)C(C)(C)[C@@H](O)CC(=O)O1 | 0 |
| Cc1nc(-c2ccc(-c3ccc(C(=O)N4CCc5cc6c(cc54)C4(CCN(C)CC4)CO6)cc3)c(C)c2)no1 | 0 |
| C[C@]12CC[C@H]3[C@@H](CCC4=CC(=O)CC[C@@]43C)[C@@H]1CC[C@@H]2OC(=O)CCC1CCCC1 | 1 |

Assay result, entry C[C@@]12OC(=O)[C@]1([C@@H](O)[C@@H]1C=CCCC1)NC(=O)[C@@H]2CCCl — outcome?
1

---

# ASSAY: glucagon-like peptide 1 release enhancers, primary assay, NCI-H716 cell line, NPC library (AID 1117341); further: reference of the scale not given here
# TEST_CONTEXT: NCI-H716 cells, at 10 µM, stronger effect = higher value
RECORDED_ENDPOINT: GLP1 secretion stimulation (%)
The figure you give is taken to be in %; do not add the unit.

Check out these entries, answers already filled in.
| COMPOUND | QUANTITATIVE_READOUT |
| --- | --- |
| Oc1c(Br)cc(Br)cc1Br | -3.7 |
| CCCCCCC(=O)CCCCCC/C=C/C[C@@H](O)[C@H](O)[C@@](N)(CO)C(=O)O | -2.8 |
| CC(=O)NC1CCSC1=O (stereo not drawn) | -0.5 |
| C[C@]12CC[C@H]3[C@@H](CC[C@@]45O[C@H]4C(O)=C(C#N)C[C@]35C)[C@H]1CC[C@H]2O | -1.5 |

Noted for CNCC(O)c1ccc(O)cc1 (stereo not drawn) : its GLP1 secretion stimulation reads 0.1

Noted for NCCS[As](SCCN)c1ccc(Nc2nc(N)nc(N)n2)cc1 : its GLP1 secretion stimulation reads -3.3

Noted for CC1(C)[C@H](C=C(Cl)Cl)[C@@H]1C(=O)OCc1c(F)c(F)cc(F)c1F : its GLP1 secretion stimulation reads -5.4

Noted for COc1ccc(C(CN(C)C)C2(O)CCCCC2)cc1 (stereo not drawn) : its GLP1 secretion stimulation reads 4.1

Noted for Clc1ccccc1N1CCNCC1 : its GLP1 secretion stimulation reads 3.6

Noted for COP(=S)(OC)Oc1ccc(S(N)(=O)=O)cc1 : its GLP1 secretion stimulation reads 1.6

Noted for N#Cc1nn(-c2c(Cl)cc(C(F)(F)F)cc2Cl)c(N)c1S(=O)C(F)(F)F (stereo not drawn) : its GLP1 secretion stimulation reads -1.4

Noted for Nc1ccccc1 : its GLP1 secretion stimulation reads 1.1

Noted for c1ccc2c(c1)OCC(C1=NCCN1)O2 (stereo not drawn) : its GLP1 secretion stimulation reads 0.1

---

// inhibition lookup, one value per entry
# ASSAY: ICB984 medulloblastoma cell growth inhibition, synergistic combos for chromothripsis tumors, cisplatin or BGB combos (AID 1671451);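 further: cells exposed for 96 hours before readout; 0% = vehicle DMSO and 100% = killing by high DMSO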
# TEST_CONTEXT: ICB984 medulloblastoma cells, drug combinations, at 0.5 µM, stronger effect = higher value
The figure you give is taken to be in %; do not add the unit.

| SMILES_REPRESENTATION | inhibition / % |
| --- | --- |
| Cn1c(COP(=O)(NCCBr)NCCBr)cnc1[N+](=O)[O-] | -26 |

Noted for CCC1(c2ccccc2)C(=O)NC(=O)NC1=O : its inhibition reads -22.9

Noted for Cn1c(CCCC(=O)O)nc2cc(N(CCCl)CCCl)ccc21 : its inhibition reads -15.5

---

// fold change lookup, one value per entry
# ASSAY: sensitizers of A549 cells to miR-34 induction, primary screen, imaging, A549 dox-inducible miR-34, nuclei and caspase counts (AID 1347080)
# TEST_CONTEXT: A549 miR-34 inducible, Hoechst nuclei count, 48 h; measured here: relative caspase fold change +Dox/-Dox
The response must contain the number and no unit.

| MOLECULE | QUANTITATIVE_READOUT |
| --- | --- |
| Cc1nnc2n1-c1ccc(Cl)cc1C(c1ccccc1)=NC2 | 1.21 |
| CCCOc1ccc2[nH]cc(C3=CCNCC3)c2n1 | 0.876 |
| C[C@H](N)Cn1ccc2cc(F)c(Cl)cc21 | 1.05 |
| CC(N)c1cccc(Cl)c1Cl (centres undefined) | 0.961 |
| c1cncc([C@H]2CCCCN2)c1 | 1.12 |

Noted for CC(C)(C)OC(=O)c1ncn2c1[C@@H]1CCCN1C(=O)c1c(Br)cccc1-2 : its fold change reads 1.56

Noted for O=C1CC[C@@]2(O)[C@H]3Cc4ccc(O)c5c4C2(CCN3CC2CC2)[C@H]1O5 : its fold change reads 4.3

Noted for O=C1CN=C(c2ccccc2Cl)c2cc([N+](=O)[O-])ccc2N1 : its fold change reads 3.3

Noted for CCCCC/C=C\C/C=C\C/C=C\C/C=C\CCCC(=O)N[C@@H](CO)C(=O)O : its fold change reads 1.04

Noted for CC[N+]1(C)CCCC(OC(=O)C(O)(c2ccccc2)c2ccccc2)C1 (centres undefined) : its fold change reads 1.14

Noted for CCN1C[C@@]2(COC)C3[C@@H](OC)C4[C@@H]1C3([C@@H]1C[C@@]3(O)[C@H](OC(=O)c5ccccc5)[C@@H]1[C@]4(OC(C)=O)[C@@H](O)[C@@H]3OC)[C@H](OC)C[C@H]2O : its fold change reads 1.67

Noted for COP(=O)(OC)C(O)C(Cl)(Cl)Cl (centres undefined) : its fold change reads 1.24

Noted for CCCCC/C=C\C/C=C\C/C=C\C/C=C\CCCC(=O)NC1CC1 : its fold change reads 0.962

Noted for O=C(O)Cc1cnc[nH]1 : its fold change reads 1.63

Noted for NC(Cc1cc(O)c(O)cc1O)C(=O)O (centres undefined) : its fold change reads 0.814

Noted for CN[C@@H](C)[C@@H](O)c1ccccc1 : its fold change reads 3.17

Noted for CC(C)(C)c1cc(C=C(C#N)C#N)cc(Br)c1O : its fold change reads 1.14

Noted for Cn1cc(C(=O)C(=O)N[C@H]2CN3CCC2CC3)c2ccccc21 : its fold change reads 1.06

Noted for O=C1Nc2ccccc2C2(CCN(CCc3ccc(C(F)(F)F)cc3)CC2)O1 : its fold change reads 0.675

Noted for CCN(CC)CCOC(=O)C(O)(c1ccccc1)c1ccccc1 : its fold change reads 1.6

Noted for Oc1ccc2c3c1OC1c4[nH]c5ccccc5c4C[C@@]4(O)C(C2)N(CC2CC2)CC[C@]314 (some centres undefined) : its fold change reads 1.78
